ASSAYED TARGET: AnCDA (Aspergillus nidulans chitin deacetylase) (Aspergillus nidulans, UniProt Q5AQQ0)
Construct: recombinant AnCDA (GenBank XM_677557.1), expressed in Pichia pastoris, His-tag purified
Sequence (Q5AQQ0 19-237): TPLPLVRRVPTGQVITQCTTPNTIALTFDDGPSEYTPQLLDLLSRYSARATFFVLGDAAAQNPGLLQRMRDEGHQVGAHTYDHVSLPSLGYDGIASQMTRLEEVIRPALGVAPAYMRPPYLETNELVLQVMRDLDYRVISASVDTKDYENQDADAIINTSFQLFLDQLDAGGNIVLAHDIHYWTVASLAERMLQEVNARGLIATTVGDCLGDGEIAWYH
EXPERIMENTAL DETAILS: acetate release assay on (GlcNAc)[…] with purified AnCDA; Dixon plot Ki (abstract also gives IC50 […])
RECORDED ENDPOINT: Ki (µM)
State the answer as a number, implicitly in µM.

q: Could you share which Ki value was measured for Cc1ccc(-c2nc(CNC(=O)c3cccnc3Cl)no2)cc1 [J075-4187] ?
a: 31.6
